# tested.on: T1, recombinant purified human RGM A (human, UniProt Q96B86 48-424, limits assumed)
# T1 construct: Bought recombinant protein (R&D Systems); also called hRGM A; hRGMA
# T1 sequence: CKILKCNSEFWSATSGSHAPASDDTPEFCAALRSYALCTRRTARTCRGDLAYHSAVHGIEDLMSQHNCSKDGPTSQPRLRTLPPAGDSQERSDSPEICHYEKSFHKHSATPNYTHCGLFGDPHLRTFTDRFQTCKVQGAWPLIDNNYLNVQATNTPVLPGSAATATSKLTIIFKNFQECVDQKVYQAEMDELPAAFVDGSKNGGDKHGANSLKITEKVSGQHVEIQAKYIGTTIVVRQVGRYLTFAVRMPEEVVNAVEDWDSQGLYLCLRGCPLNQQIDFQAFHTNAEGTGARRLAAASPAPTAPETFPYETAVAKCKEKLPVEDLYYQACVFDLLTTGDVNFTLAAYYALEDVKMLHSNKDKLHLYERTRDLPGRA
# experiment: SPR (Biacore 3000), antibody captured by anti-human IgG Fc, hRGMA in solution, 25 °C
readout: koff (s⁻¹)
Express the result in s⁻¹ but write the number alone.

Some entries whose results are on file:
humanized antibody h5F9.23 (antibody, V domains shown) VH: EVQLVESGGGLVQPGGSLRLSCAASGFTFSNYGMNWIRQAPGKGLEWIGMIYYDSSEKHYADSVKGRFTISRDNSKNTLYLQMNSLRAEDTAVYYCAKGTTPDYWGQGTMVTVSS VL: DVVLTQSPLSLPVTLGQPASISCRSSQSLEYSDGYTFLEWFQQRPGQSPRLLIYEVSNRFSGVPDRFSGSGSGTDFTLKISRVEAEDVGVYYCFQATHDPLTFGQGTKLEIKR ... 0.00221
humanized antibody h5F9.21 (antibody, V domains shown) VH: EVQLVESGGGVVQPGRSLRLSCAASGFTFSNYGMNWIRQAPGKGLEWIGMIYYDSSEKHYADSVKGRFTISRDNSKNTLYLQMNSLRAEDTAVYYCAKGTTPDYWGQGTMVTVSS VL: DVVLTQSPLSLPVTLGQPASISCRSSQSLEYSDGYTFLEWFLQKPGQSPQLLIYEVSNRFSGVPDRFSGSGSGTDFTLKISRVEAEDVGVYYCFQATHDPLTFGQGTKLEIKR ... 0.00269

Kindly consider the entry below.
Input chimeric 5F9 (antibody, V domains shown, also called chimeric human-rat 5F9; biotinylated chimeric 5F9) VH: EVQLVESGGGLVQPGSSLKLSCVASGFTFSNYGMNWIRQAPKKGLEWIGMIYYDSSEKHYADSVKGRFTISRDNSKNTLYLEMNSLRSEDTAIYYCAKGTTPDYWGQGVMVTVSS VL: DVVLTQTPVSLSVTLGDQASMSCRSSQSLEYSDGYTFLEWFLQKPGQSPQLLIYEVSNRFSGVPDRFIGSGSGTDFTLKISRVEPEDLGVYYCFQATHDPLTFGSGTKLEIKR , output reported koff.
0.00236
